Provide the reported efficacy of each item.
test system: HCT116; assay: efficacy (fitted maximal change in viability relative to DMSO control); higher = less cytotoxic (negative = loss of viability); settings: 48 h;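 also: Luminescence-based viability readout, five doses per compound, normalized against on-plate DMSO and empty-well controls, followed by dose-response curve fitting for every drug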
Structures can show the parent of a compound that is named as a salt.
All answers are understood in %, so give the number only.

Ask: For the compound CC(=O)C\1=C(/C)C2=CN=C(NC3=CC=C(C=N3)N4CCNCC4)N=C2N(C5CCCC5)C1=O , what efficacy is on record?
Result: -109

Ask: Also, CC[C@H](C)C(=O)O[C@H]1C[C@H](O)\C=C2\C=C/[C@H](C)[C@H](CC[C@@H](O)C[C@@H](O)CC(O)=O)[C@@H]12 [Pravastatin sodium] please.
Result: -7.8

Ask: Follow-up item: c1ccc2c(-c3cnn4cc(-c5ccc(N6CCNCC6)cc5)cnc34)ccnc2c1
Result: -104

Ask: Cool, now COc1ccnc(C[S+]([O-])c2nc3cc(OC(F)F)ccc3[nH]2)c1OC (stereo not given)
Result: -34.5

Ask: Then what about the compound CCc1cnn2c(NCc3ccc[n+]([O-])c3)cc(N3CCCC[C@H]3CCO)nc12 ?
Result: -67.1

Ask: Would you mind doing Cc1[nH]c2ccc(F)cc2c1-c1nc2c3cccnc3c3ncccc3c2[nH]1 as well?
Result: -77.4

Ask: What do you get for NC1=NC=C(C=C1)C2=CC=C3N=CC\4=C(N(C(=O)\C=C4)C5=CC(=CC=C5)C(F)(F)F)C3=C2 ?
Result: -96.6

Ask: Next compound: C[C@@H]1CC[C@@]2(OC1)O[C@H]3C[C@H]4[C@@H]5C/C=C6/C[C@H](CC[C@]6(C)[C@H]5CC[C@]4(C)[C@H]3[C@@H]2C)O[C@@H]7O[C@H](CO)[C@@H](O[C@@H]8O[C@@H](C)[C@H](O)[C@@H](O)[C@H]8O)[C@H](O)[C@H]7O[C@@H]9O[C@@H](C)[C@H](O)[C@@H](O)[C@H]9O
Result: -101

Ask: Then CO[C@@H](C)Cn1c(=O)n(C)c2cnc3ccc(-c4cncc(C(C)(C)O)c4)cc3c21 ?
Result: -82.3

Ask: Please answer likewise for O=C(c1ccc(F)cc1)N1CCC[C@H](c2nc(-c3ccc(F)cc3)no2)C1
Result: -35.7

Ask: Field entry: CCOc1cc2c(c(F)c1OCC)C(=N)N(CC(=O)c1cc(N3CCOCC3)c(OC)c(C(C)(C)C)c1)C2
Result: -77

Ask: And the next one, C=CC(=O)Nc1cccc(Sc2nc(Nc3ccc(N4CCN(C)CC4)cc3)ncc2Cl)c1 ?
Result: -108

Ask: Again, but for CC/C(=C(\c1ccccc1)c1ccc(OCCN(C)C)cc1)c1ccccc1
Result: -87.8

Ask: Next entry: COCCOC1=CN=C2\C=C/N([C@H](C)C3=NN=C4[N]3C=C(C=C4F)C5=C[N](C)N=C5)C(=O)C2=C1
Result: -4.95

Ask: How about this compound: CC(=O)Nc1nc(C)c(-c2ccc(Cl)c([S+](=O)([O-])NCCO)c2)s1
Result: -85.9

Ask: Moving on to the next compound: COC1=C(OC)C=C2C(=C1)C(=O)N(CCC[N]3C=CN=C3)\C4=C2\C(=O)C5=CC6=C(OCO6)C=C45 [Indimitecan hydrochloride (LMP-776)]
Result: -63.4

Ask: Quick one: O=c1sn(-c2cccc3ccccc23)c(=O)n1Cc1ccccc1
Result: -7.08

Ask: Then this compound: C[C@]12CCC\3=C\4CCC(=O)\C=C4CC[C@H]3[C@@H]1CC[C@@]2(O)CC#N
Result: -15.9

Ask: Query CN(C(=O)CNC(=O)/C=C/c1cccc(Cl)c1)C1CC[S+](=O)([O-])CC1 (stereo not given) next
Result: -92.4

Ask: Quick one: ClC1=CC=C(CCCOC/2=N/NC(=O)C(=C2NCC3=CN=CC=C3)/Br)C=C1
Result: -86.2

Ask: And C[C@H](NC(=O)CCC(F)(F)F)C(=O)N[C@@H]1C(=O)N(CCO)c2ncccc2-c2ccccc21 ?
Result: -44.7

Ask: What about this compound? CC1C\2C(O)C3C(N(C)C)C(=O)\C(=C(O)/C3(O)C(=O)C2=C(O)/C4=C1C=CC=C4O)C(N)=O (stereo not given)
Result: -26.7

Ask: For COCC1(CO)C(=O)C2CCN1CC2 (stereo not given) then?
Result: -7.36

Ask: COC(=O)Nc1nc2cc(Sc3ccccc3)ccc2[nH]1 ?
Result: -79.7

Ask: CCCc1cc(C(N)=S)ccn1 [Protionamide] , same question.
Result: -9.17

Ask: Further, for CN(C)C(=O)C(CCN1CCC(O)(c2ccc(Cl)cc2)CC1)(c1ccccc1)c1ccccc1 [Loperamide hydrochloride] ?
Result: -98.7

Ask: Same question for CC[S+](=O)([O-])Nc1ccc2c(c1)/C(=C(/Nc1ccc(CN3CCCCC3)cc1)c1ccccc1)C(=O)N2 please.
Result: -90.4

Ask: Next entry: CNC(=O)Nc1ccc(-c2nc(N3CC4CCC(C3)O4)c3cnn(C4CCC5(CC4)OCCO5)c3n2)cc1
Result: -96.3

Ask: CNC(=O)c1cc(Oc2ccc(NC(=O)Nc3ccc(Cl)c(C(F)(F)F)c3)c(F)c2)ccn1 , same question.
Result: -85.3

Ask: Moving on to the next compound: Cc1ccc(NC(=O)c2cccc(N(C)C)c2)cc1NC(=O)c1ccc(O)cc1
Result: -21.6
